MTT (% of ctl) for assorted compounds
# Test system: primary cortico-hippocampal neuron cultures
# Experiment Summary: MTT in primary screening
# Measurement Parameters: primary screening; table sorted by Aβ1-42

{"Compound": "CC(C)NCC(O)COc1cccc2[nH]ccc12 (stereo not shown)", "MTT (% of ctl)": "98.9 % of ctl"}
{"Compound": "COc1ccccc1N1CCN(CCCNc2cc(=O)n(C)c(=O)n2C)CC1", "MTT (% of ctl)": "103.4 % of ctl"}
{"Compound": "NS(=O)(=O)c1cc2c(cc1Cl)N=CNS2(=O)=O [Chlorothiazide]", "MTT (% of ctl)": "99.4 % of ctl"}
{"Compound": "O=c1oc2ccccc2c(O)c1Cc1c(O)c2ccccc2oc1=O", "MTT (% of ctl)": "97.0 % of ctl"}
{"Compound": "C[C@]12CC[C@H]3[C@@H](CC[C@]4(O)C[C@@H](O)CC[C@]34C=O)[C@@]1(O)CC[C@@H]2C1=CC(=O)OC1", "MTT (% of ctl)": "99.2 % of ctl"}
{"Compound": "CC(=O)O[C@H]1C[C@H](O[C@H]2[C@@H](O)C[C@H](O[C@H]3[C@@H](O)C[C@H](O[C@H]4CC[C@@]5(C)[C@H](CC[C@@H]6[C@@H]5C[C@@H](O)[C@]5(C)[C@@H](C7=CC(=O)OC7)CC[C@]65O)C4)O[C@@H]3C)O[C@@H]2C)O[C@H](C)[C@H]1O[C@@H]1O[C@H](CO)[C@@H](O)[C@H](O)[C@H]1O [Lanatoside C]", "MTT (% of ctl)": "66.5 % of ctl"}
{"Compound": "NC(N)=O", "MTT (% of ctl)": "96.7 % of ctl"}
